Assignment: determine reported protein stability index for the given variants.
B1: DVL3 (parent)
chain: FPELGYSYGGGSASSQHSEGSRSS

Variants of: B1
Protocol description: protein stability index of a GFP-peptide fusion (GPS, HEK-293T) (PSI 1-6); higher = more stable;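 further: lentivirally expressed fusions sorted by FACS into six bins by GFP to DsRed ratio, PSI derived from sequencing read proportions per bin multiplied by bin number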
Experimental context: c terminus: a fixed tail appended
// return just the number, without any unit appended

input: Reported protein stability index for G5W : what is it?
output: 1.61

input: Can you handle S12E next?
output: 3.56

input: Similarly, G11S ?
output: 3.03

input: Follow-up entry: G5T
output: 3.96

input: Same for S12P
output: 2.92

input: S21V ?
output: 3.07

input: Quick one: F1Y
output: 4

input: Also check G10A
output: 3.06

input: Query Y6C next
output: 3.4

input: Moving on to the next variant: S12F
output: 2.65

input: Now consider Y8L .
output: 3.09

input: Also need S23T , thanks.
output: 2.46

input: // next record S21W
output: 2.29

input: Try the variant S14F
output: 2.16

input: # iterate: G10T
output: 2.78

input: // next record H17R
output: 2.61

input: // next record S23A
output: 2.97

input: Another variant to look at: Y8P
output: 3.97

input: Same thing, different variant: Y6G
output: 3.81

input: Also S18I ?
output: 2.73

input: Then this variant: G11T
output: 2.52

input: Similarly, S14T ?
output: 2.77

input: Follow-up entry: E3F
output: 2.93

input: Then S7H ?
output: 2.4

input: Next variant up: E3A
output: 3.43

input: Lookup Y8W
output: 2.82

input: Then what about the variant Q16T ?
output: 3.48

input: What do you get for L4E ?
output: 4.31

input: Please answer likewise for G10P
output: 3.3

input: Please answer likewise for Y8T
output: 3.7

input: Repeat with Y6T
output: 3.7

input: Try this variant next: A13P
output: 2.94

input: Param item: F1Q
output: 5.03

input: Likewise for S21I ?
output: 2.83

Sourced from the supplement of paper PMC10567573
